Test system: M19MEL
TEST: In vitro anti-tumour cell growth inhibition (method of Skehan et al.), M19MEL
Format: cell-based
CONDITION DESCRIPTION: melanoma, amount which inhibits 50% of the cell growth
For each record, write down the corresponding ID50.
Numbers only, in µg/mL.

Study these solved cases before continuing.
INSERT INTO measurements (compound, measured_property, data_value) VALUES
  ('CC1(C)OC(=O)CC1C(=O)[O-].CCC[CH2][Sn+]([CH2]CCC)[CH2]CCC [Compound 2, tri-n-butyltin terebate]', 'ID50', 0.011),
  ('N.N.[Cl][Pt][Cl] [Cisplatin, cisplatin, reference compound]', 'ID50', 0.78),
  ('N.N.O=C([O-])C1(C(=O)[O-])CCC1.[Pt+2] [Carboplatin, carboplatin, reference compound]', 'ID50', 5.5);

Fill in ID50 for each of the 2 compounds listed.
1. CC1(C)OC(=O)CC1C(=O)[O-].CC1(C)OC(=O)CC1C(=O)[O-].CCC[CH2][Sn+2][CH2]CCC (centres unmarked) [Compound 1, Di-n-butyltin diterebate]
2. CC1(C)OC(=O)CC1C(=O)[O-].c1cc[c]([Sn+]([c]2ccccc2)[c]2ccccc2)cc1 [Compound 3, triphenyltin terebate]

Response:
0.061
0.042

###

Tested on: IGROV
TEST: In vitro anti-tumour cell growth inhibition (method of Skehan et al.), IGROV
Assay type: cell-based
CONDITION DESCRIPTION: ovarian cancer, amount which inhibits 50% of the cell growth
Assignment: determine reported ID50 for the given molecules.
Record the result as number plus unit.

Solved entries (count: 4):
INSERT INTO assay_data (molecule, data_value) VALUES
  ('N.N.O=C([O-])C1(C(=O)[O-])CCC1.[Pt+2] [Carboplatin, carboplatin, reference compound]', '2400 ng/mL'),
  ('CC1(C)OC(=O)CC1C(=O)[O-].CCC[CH2][Sn+]([CH2]CCC)[CH2]CCC [Compound 2, tri-n-butyltin terebate]', '4 ng/mL'),
  ('CC1(C)OC(=O)CC1C(=O)[O-].CC1(C)OC(=O)CC1C(=O)[O-].CCC[CH2][Sn+2][CH2]CCC (centres unmarked) [Compound 1, Di-n-butyltin diterebate]', '18 ng/mL'),
  ('N.N.[Cl][Pt][Cl] [Cisplatin, cisplatin, reference compound]', '230 ng/mL');

Turning now to a further molecule:
Request: Look up ID50: CC1(C)OC(=O)CC1C(=O)[O-].c1cc[c]([Sn+]([c]2ccccc2)[c]2ccccc2)cc1 [Compound 3, triphenyltin terebate]
Response: 19 ng/mL

###

Test system: EVSA-T
TEST: In vitro anti-tumour cell growth inhibition (method of Skehan et al.), EVSA-T
Format: cell-based
CONDITION DESCRIPTION: breast cancer, amount which inhibits 50% of the cell growth
Experimental: Compounds 1, 2 and 3 were tested in vitro. together with 2 reference compounds used clinically (carboplatin and cisplatin), against MCF-7 and EVSA-T, two breast cancers, WiDr, a colon cancer, IGROV, an ovarian cancer, M19MEL, a melanoma, A498, a renal cancer, and H226, a non small cell lung cancer. The tests were carried out according to the method of Skehan et al, Journal of the National Cancer Institute, 1990; 82: 1107-1112.
MEASURED PROPERTY: ID50 (µg/mL)
Answers are plain numbers, in µg/mL.

INSERT INTO measurements (compound, data_value) VALUES
  ('N.N.[Cl][Pt][Cl] [Cisplatin, cisplatin, reference compound]', 0.92),
  ('CC1(C)OC(=O)CC1C(=O)[O-].CC1(C)OC(=O)CC1C(=O)[O-].CCC[CH2][Sn+2][CH2]CCC (centres unmarked) [Compound 1, Di-n-butyltin diterebate]', 0.025);

Request: Return reported ID50; argument: N.N.O=C([O-])C1(C(=O)[O-])CCC1.[Pt+2] [Carboplatin, carboplatin, reference compound]
Response: 4.5
